Assay: Volume of distribution at steady state in mouse at 5 mg/kg, iv and 20 mg/kg, po
Format: ADME, organism-based
Conditions: in vivo, read-out: Vdss
Assay endpoint: Vd (L/kg)
Give the number; L/kg is assumed, so skip it.

For `C[C@H]1C[C@@H](NS(=O)(=O)c2cc(Br)ccc2Br)CN1C#N` , what is its reported Vd?
0.4

====

Molecular target: Dipeptidyl peptidase 1 (Homo sapiens)
Sequence (P53634 25-134 limits assumed): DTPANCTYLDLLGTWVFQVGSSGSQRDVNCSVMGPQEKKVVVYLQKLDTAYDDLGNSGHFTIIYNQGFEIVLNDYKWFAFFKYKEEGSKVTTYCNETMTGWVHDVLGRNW
Sequence (P53634 231-394 limits assumed): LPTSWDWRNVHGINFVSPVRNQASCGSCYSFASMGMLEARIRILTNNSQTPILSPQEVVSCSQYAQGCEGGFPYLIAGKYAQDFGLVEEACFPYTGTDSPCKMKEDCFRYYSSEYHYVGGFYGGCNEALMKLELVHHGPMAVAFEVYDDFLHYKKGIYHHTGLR
Sequence (P53634 395-463 limits assumed): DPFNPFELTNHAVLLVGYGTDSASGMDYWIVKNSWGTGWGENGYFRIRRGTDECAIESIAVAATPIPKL
Experiment: Inhibition of human recombinant cathepsin C after 1 hr
Assay endpoint: pIC50
API: returns pIC50 as number; meaning -log10 of concentration in mol/L.

Solved cases (6 shown):
State its pIC50 on Dipeptidyl peptidase 1 (Homo sapiens): `COc1ccc(OC)c(S(=O)(=O)N[C@@H]2C[C@H](C)N(C#N)C2)c1`
6.90

// same read-out, input: `C[C@H]1C[C@@H](NS(=O)(=O)c2cccc(Br)c2)CN1C#N`
6.80

// same read-out, input: N#CN1CCC(CCc2ccccc2)C1 (configuration not stated)
5.70

// same read-out, input: `N#CN1CC[C@@H](NC(=O)Nc2ccccc2)C1`
6.00

// same read-out, input: `N#CN1CC[C@@H](NC(=O)c2ccc(F)cc2)C1`
5.60

// same read-out, input: `N#CN1CC[C@@H](NS(=O)(=O)c2ccccc2)C1`
6.50

---
State its pIC50 on Dipeptidyl peptidase 1 (Homo sapiens): `C[C@@H]1C[C@@H](NS(=O)(=O)c2cccc(Br)c2)CN1C#N`
4.80

// same read-out, input: `N#CN1CC[C@@H](NS(=O)(=O)c2cccc(Br)c2)C1`
8.10
